System name: SmcR (Vibrio vulnificus)
Construct: purified SmcR (dimer); SeMet-substituted SmcR for the crystals
Sequence (Q9L8G8 entry or part of it): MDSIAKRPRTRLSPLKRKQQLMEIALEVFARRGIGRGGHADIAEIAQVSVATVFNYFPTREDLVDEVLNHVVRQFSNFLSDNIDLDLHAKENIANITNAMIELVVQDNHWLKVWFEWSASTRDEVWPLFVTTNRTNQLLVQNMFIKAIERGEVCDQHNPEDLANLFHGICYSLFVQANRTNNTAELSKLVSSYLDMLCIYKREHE
Assay method text: ITC (two-sequential binding model; second Kd =[…]) and […] Å crystal structure of the soaked complex
Readout kind: Kd (nM)
Give the value, in units of nM, as a plain number.

(Q) Fill in the blank: the reported Kd of O=S(=O)(c1ccc(Br)s1)n1cccn1 is ____.
(A) 470
